- System: Notch signalling
- assayProtocol: Notch reporter assay (12xCSL firefly luciferase / renilla luciferase, HEK293T Notch1ΔE reporter cell line clone #A1-11)
- Assay type: cell-based
- recordedConditions: Homo sapiens, HEK-293T; 1,25µM; 3-point DR confirmation screen, Notch reporter assay; read-out: inhibitor ratio in % of DMSO in 3 point DR
quantity: activity (%)
One number for each entry, in %.

Please review the entries below; each comes with its answer.
mol: NC(=O)c1c(NC(=O)NCc2cccnc2)sc2c1CCC2
unitsOfMeasure: %
activity: 91

mol: CC(=O)Oc1cccc(N2C(=O)c3ccc(Oc4cccc(N)c4)cc3C2=O)c1
unitsOfMeasure: %
activity: 87.9

Consider the additional compound presented here.
Sample Cc1ccc(-c2noc([C@@H]3Cc4[nH]cnc4CN3C(=O)CCC(=O)O)n2)cc1 — what was its activity?
87.5

###

- System: Notch signalling
- assayProtocol: Notch reporter assay (12xCSL firefly luciferase / renilla luciferase, HEK293T Notch1ΔE reporter cell line clone #A1-11)
- Assay type: cell-based
- recordedConditions: 25µM; 3-point DR confirmation screen, Notch reporter assay
Could you please report measured inhibitor ratio in % of DMSO in 3 point DR for the items listed next?

Hi there! I need inhibitor ratio in % of DMSO in 3 point DR for each item below, if you can.
1. NC(=O)c1[nH]nc(C2OC(CO)C(O)C2O)c1O (stereo not drawn)
2. NC(=O)c1c(NC(=S)NC(NC(=O)c2ccccc2)C(Cl)(Cl)Cl)sc2c1CCCC2 (stereo not drawn)
3. C[C@@H]1C(=O)O[C@H]2[C@H]1CC[C@@]1(C)Cc3sc(NC(=O)CCC(=O)O)nc3[C@@H](C)[C@H]21
4. C[C@@H]1C(=O)O[C@H]2[C@H]1CC[C@@]1(C)Cc3sc(NC(=O)CN(C)C)nc3[C@@H](C)[C@H]21
5. COc1cccc(OCC2CCCN(C(=O)CCc3cnn(C)c3)C2)c1 (stereo not drawn)
6. O=C(O)c1c2c(nc3ccccc13)C(=Cc1ccc3c(c1)OCCO3)CC2

1: 65.5 % of DMSO; 2: 49.9 % of DMSO; 3: 25.1 % of DMSO; 4: 35.0 % of DMSO; 5: 34.9 % of DMSO; 6: 7.0 % of DMSO

Hi there! I need inhibitor ratio in % of DMSO in 3 point DR for each item below, if you can.
1. Fc1cc(CN2CCC3(CC2)OCCc2c3[nH]c3ccc(Br)cc23)cc(F)c1F
2. Cc1ccc(NC(=O)c2cnc(SCc3ccc(F)cc3)n(C)c2=O)cc1C
3. O=C(Nc1sccc1C(=O)N1CCOCC1)C(Sc1ccccc1)c1ccccc1 (stereo not drawn)
4. COc1ccc(-c2noc([C@@H]3Cc4[nH]cnc4CN3C(=O)CCC(=O)O)n2)cc1
5. Nc1ccc(Sc2nccnc2N2CCCC2)cc1
6. CC(=O)Nc1cccc(-c2ccc(Nc3cccc(N(C)C)c3)nc2)c1

["75.1 % of DMSO", "47.2 % of DMSO", "57.1 % of DMSO", "56.4 % of DMSO", "27.1 % of DMSO", "23.9 % of DMSO"]

###

Could you please report measured 3p-DR in % of DMSO counter for the items listed next?
- studyTarget: γ-secretase complex (Homo sapiens, UniProt P49768)
- assayProtocol: APP-C99 counter assay (GSI reporter assay)
- Format: cell-based
- recordedConditions: 1,25µM; APP-C99 counter assay

compound: c1ccc2oc(CN3Cc4nc[nH]c4C[C@H]3c3nc(-c4ccc5c(c4)OCO5)no3)cc2c1
studyTarget: γ-secretase complex (Homo sapiens, UniProt P49768)
3p-DR in % of DMSO counter: 112.2 % of DMSO

compound: COc1ccc(-c2noc([C@@H]3Cc4[nH]cnc4CN3C(=O)CCC(=O)O)n2)cc1
studyTarget: γ-secretase complex (Homo sapiens, UniProt P49768)
3p-DR in % of DMSO counter: 131.3 % of DMSO

compound: NC(=O)c1c(NC(=S)NC(NC(=O)c2ccccc2)C(Cl)(Cl)Cl)sc2c1CCCC2 (centres unmarked)
studyTarget: γ-secretase complex (Homo sapiens, UniProt P49768)
3p-DR in % of DMSO counter: 111.1 % of DMSO

compound: COc1cccc(OCC2CCCN(C(=O)CCc3cnn(C)c3)C2)c1 (centres unmarked)
studyTarget: γ-secretase complex (Homo sapiens, UniProt P49768)
3p-DR in % of DMSO counter: 61.2 % of DMSO

Consider the additional compound presented here.
Sample COc1ccc2cc(C(=O)N3CCC(c4ccncc4)CC3)[nH]c2c1 — what was its 3p-DR in % of DMSO counter?
72.9 % of DMSO
